System: DLD1
Test: cell viability (CellTiter-Glo) relative to plate median (fraction of plate median); higher = more viable cells
Details: 5 µM; treatment time 24 h; reporter: 7TFP

MOLECULE: O=c1ccc2cc(O)c(O)cc2o1
cell viability: 1.03
--
MOLECULE: C[C@H]1[C@H](C)CC[C@]2(C(=O)O)CC[C@]3(C)C(=CC[C@@H]4[C@@]5(C)C[C@@H](O)[C@H](O)[C@@](C)(CO)[C@@H]5[C@H](O)C[C@]43C)[C@H]12
cell viability: 1.01
--
MOLECULE: CCOC(=O)c1c(C)cc(OC)cc1O
cell viability: 0.947
--
MOLECULE: C#C[C@]1(O)CC[C@H]2[C@@H]3CCC4=CC(=O)CC[C@@H]4[C@H]3CC[C@@]21C
cell viability: 1.15
--
MOLECULE: CC12CCC(CC1)C(C)(C)O2
cell viability: 0.996
--
MOLECULE: CN(C)CCCN1c2ccccc2CCc2ccccc21
cell viability: 1.05
--
MOLECULE: CCC(=O)C1(C)OC1C(C)CC(C)C1OC(=O)CC2(O)CC=C(C)C(O2)/C(C)=C/CCCC(OC2CC(OC(N)=O)C(O)C(C)O2)/C=C/C(C)C(O)C1C (centres undefined)
cell viability: 1.07
--
MOLECULE: COC(=O)c1c(C)cc(OC(=O)c2c(C)cc(O)c(C=O)c2O)c(C)c1O
cell viability: 1.06
--
MOLECULE: CC[C@]12CCCN3CCc4c(n(c5ccccc45)[C@@](O)(C(=O)OC)C1)[C@@H]32
cell viability: 1.02

====

Tested on: SW480
Test: TCF/Wnt firefly luciferase reporter signal relative to plate median (fraction of plate median); higher = higher Wnt reporter signal
Settings: 5 µM; treatment time 24 h; reporter: 7TFP
Assign met whenever TCF/Wnt firefly luciferase reporter signal does not fall below 1; assign not met whenever it does.

COMPOUND: CCCC1O[C@@H]2C[C@H]3[C@@H]4CCC5=CC(=O)C=C[C@]5(C)[C@H]4[C@@H](O)C[C@]3(C)[C@]2(C(=O)CO)O1 (some centres undefined)
CAT: not met
//
COMPOUND: C[C@@H]1C[C@H]2[C@@H]3CCC4=CC(=O)C=C[C@]4(C)[C@@]3(F)[C@@H](O)C[C@]2(C)[C@@]1(O)C(=O)COP(=O)(O)O
CAT: not met
//
COMPOUND: C[N+](C)(C)CCCCCC[N+](C)(C)C
CAT: met
//
COMPOUND: O=S(=O)(O)c1cc(N=C=S)ccc1/C=C/c1ccc(N=C=S)cc1S(=O)(=O)O
CAT: met
//
COMPOUND: CCOC(=O)N1CCC(=C2c3ccc(Cl)cc3CCc3cccnc32)CC1
CAT: not met
//
COMPOUND: CN1CCN(CCCN2c3ccccc3Sc3ccc(Cl)cc32)CC1
CAT: not met
//
COMPOUND: Nc1ncn([C@@H]2O[C@H](CO)[C@@H](O)[C@H]2O)c(=O)n1
CAT: met

====

Below, each entry is listed with its recorded cell viability.
Test system: SW480
Assay: cell viability (CellTiter-Glo) relative to plate median (fraction of plate median); higher = more viable cells
Conditions: 5 µM; treatment time 24 h; reporter: 7TFP

COMPOUND: CN1CCC[C@@H]1Cc1c[nH]c2ccc(CCS(=O)(=O)c3ccccc3)cc12
cell viability: 0.956

COMPOUND: CC[C@H]1OC(=O)C[C@@H](O)[C@H](C)[C@@H](O[C@@H]2O[C@H](C)[C@@H](O)[C@H](N(C)C)[C@H]2O)[C@@H](CCN2C[C@H](C)C[C@H](C)C2)C[C@@H](C)C(=O)/C=C/C(C)=C/[C@@H]1CO[C@@H]1O[C@H](C)[C@@H](O)[C@@H](OC)[C@H]1OC
cell viability: 0.972

COMPOUND: Cc1ccccc1N1C(=O)c2cc(S(N)(=O)=O)c(Cl)cc2NC1C (stereo not drawn)
cell viability: 1.02

COMPOUND: Cc1ncc(C[n+]2csc(CCO)c2C)c(N)n1
cell viability: 1

COMPOUND: COC(C)c1cccc2nc3c(C(=O)O)cccc3nc12 (stereo not drawn)
cell viability: 1.04

COMPOUND: NC(=O)N1c2ccccc2CC(=O)c2ccccc21
cell viability: 1.03

COMPOUND: Nc1ccc(S(=O)(=O)NC(=O)c2ccccc2)cc1
cell viability: 1.11

COMPOUND: CCCCCCCCNC(C)C(O)c1ccc(SC(C)C)cc1 (stereo not drawn)
cell viability: 1.02

COMPOUND: C[C@@H]1C[C@H]2O[C@@H]2/C=C\C=C\C(=O)Cc2c(Cl)c(O)cc(O)c2C(=O)O1
cell viability: 1.07

COMPOUND: COC(=O)C1=CO[C@@H](O[C@@H]2O[C@H](CO)[C@@H](O)[C@H](O)[C@H]2O)[C@@H]2[C@@H](C)CC(=O)[C@]12O
cell viability: 0.988

COMPOUND: CCCCCCNC(=O)n1cc(F)c(=O)[nH]c1=O
cell viability: 1.04

COMPOUND: CC1(C)O[C@@H]2C[C@H]3[C@@H]4CCC5=CC(=O)C=C[C@]5(C)[C@@]4(F)[C@@H](O)C[C@]3(C)[C@]2(C(=O)CO)O1
cell viability: 1.03

COMPOUND: CCCCCCCCCCCCCCC(C(=O)O)C(O)(CC(=O)OC)C(=O)O (stereo not drawn)
cell viability: 0.951

COMPOUND: CO[C@H]1[C@H](O)[C@@H](O)[C@H](O)[C@H](O)[C@H]1O
cell viability: 1.03

COMPOUND: C[C@H]1[C@H](C)CC[C@]2(C(=O)O)CC[C@]3(C)C(=CC[C@@H]4[C@@]5(C)C[C@@H](O)[C@H](O)[C@@](C)(CO)[C@@H]5[C@H](O)C[C@]43C)[C@H]12
cell viability: 0.985

COMPOUND: COc1cccc2c1CCC1=CC(=O)CC[C@@]12C
cell viability: 1.03

COMPOUND: COc1c2c(cc3occ(-c4ccc5c(c4)OCO5)c(=O)c13)OC(C)(C)C=C2
cell viability: 0.93

COMPOUND: COc1ccc(C2CNC(=O)C2)cc1OC1CCCC1 (stereo not drawn)
cell viability: 0.968

====

Tested on: DLD1
Experiment: TCF/Wnt firefly luciferase reporter signal relative to plate median (fraction of plate median); higher = higher Wnt reporter signal
Conditions: 5 µM; treatment time 24 h; reporter: 7TFP
REPORTED METRIC: TCF/Wnt firefly luciferase reporter signal

COMPOUND: CCCCN(CCCC)CCCOC(=O)c1ccc(N)cc1
MEASURED: 1.11
--
COMPOUND: Oc1c(I)cc(Cl)c2cccnc12
MEASURED: 1.2
--
COMPOUND: CC(C)=CCc1c2c(c3occ(-c4ccc(O)cc4)c(=O)c3c1O)C=CC(C)(C)O2
MEASURED: 1.1
--
COMPOUND: C=CCCCCCCCCC(=O)[O-].C=CCCCCCCCCC(=O)[O-].[Zn+2]
MEASURED: 0.94
--
COMPOUND: C#CCCCCCCCCCCCC(O)CC(O)COC(C)=O (stereo not drawn)
MEASURED: 1.08
--
COMPOUND: COC[C@H]1O[C@@H](OC2OC[C@@H]3O[C@]4(O[C@H]3[C@H]2OC(=O)C(C)C)O[C@H](C)[C@@](O)(C(C)=O)[C@@H]2OCO[C@H]24)[C@@H](OC)[C@@H](O)[C@@H]1O[C@@H]1O[C@H](C)[C@H](OC)[C@H](O[C@H]2C[C@@]3(C)OC4(C[C@@H](O)[C@H](O[C@H]5C[C@@H](O)[C@H](OC(=O)c6c(C)c(Cl)c(O)c(Cl)c6OC)[C@@H](C)O5)[C@@H](C)O4)O[C@@H]3[C@@H](C)O2)[C@H]1O (stereo partly drawn) [Avilamycin A]
MEASURED: 1.03
--
COMPOUND: CC(C)NNC(=O)c1ccncc1
MEASURED: 1.07
--
COMPOUND: O=c1[nH]cnc2c1ncn2[C@@H]1O[C@H](CO)[C@@H](O)[C@H]1O
MEASURED: 0.975
--
COMPOUND: Cc1cc2cc3c(C)cc(=O)oc3c(C)c2o1
MEASURED: 1.14
--
COMPOUND: CC1COc2c(N3CCN(C)CC3)c(F)cc3c(=O)c(C(=O)O)cn1c23 (stereo not drawn)
MEASURED: 0.93
--
COMPOUND: Clc1ccc(C(Cn2ccnc2)OCc2ccsc2Cl)c(Cl)c1 (stereo not drawn)
MEASURED: 0.923
--
COMPOUND: CC1=C(/C=C/C(C)=C/C=C/C(C)=C/C=C/C=C(C)/C=C/C=C(C)/C=C/C2=C(C)C(=O)[C@@H](O)CC2(C)C)C(C)(C)C[C@H](O)C1=O
MEASURED: 1.06
--
COMPOUND: O=CNc1ccccc1C(=O)O [N-Formylanthranilic acid]
MEASURED: 0.954
--
COMPOUND: NC[C@H]1CC[C@H](C(=O)O)CC1
MEASURED: 0.927
--
COMPOUND: C[C@H]1[C@H](C)CC[C@]2(CO)CC[C@]3(C)C(=CC[C@@H]4[C@@]5(C)CC[C@H](O)C(C)(C)[C@@H]5CC[C@]43C)[C@H]12
MEASURED: 0.871
--
COMPOUND: N=C1C=CC(=C(c2ccc(N)cc2)c2ccc(N)cc2)C=C1
MEASURED: 0.923
--
COMPOUND: C=C(NC(=O)C(=C)NC(=O)c1csc(C2=N[C@@H]3c4csc(n4)[C@H]4NC(=O)c5csc(n5)[C@H]([C@](C)(O)[C@@H](C)O)NC(=O)[C@H]5CSC(=N5)/C(=C/C)NC(=O)[C@H]([C@@H](C)O)NC(=O)c5csc(n5)[C@]3(CC2)NC(=O)[C@H](C)NC(=O)C(=C)NC(=O)[C@H](C)NC(=O)[C@H]([C@@H](C)CC)N[C@@H]2C=Cc3c([C@H](C)O)cc(nc3[C@H]2O)C(=O)O[C@@H]4C)n1)C(N)=O
MEASURED: 0.966
--
COMPOUND: C=C1C(=O)[C@]23[C@H](CC[C@@H]1[C@@H]2O)[C@]12CO[C@@]3(O)[C@H](O)[C@H]1C(C)(C)CC[C@@H]2O
MEASURED: 0.876
--
COMPOUND: O=C(O)CCCCCCCCCCCC[C@@H]1C=CCC1
MEASURED: 1.15
--
COMPOUND: c1ccc(CN(CC2=NCCN2)c2ccccc2)cc1
MEASURED: 1.18
--
COMPOUND: CC(C)(C)NCC(O)c1cc(O)cc(O)c1 (stereo not drawn)
MEASURED: 0.999
--
COMPOUND: O=C(C=Cc1ccc(O)cc1)c1ccccc1O
MEASURED: 1.06
--
COMPOUND: C=CCCCCCCCCCCCc1ccco1
MEASURED: 0.854
--
COMPOUND: CC(=O)O[C@]1(C(C)=O)CC[C@H]2[C@@H]3C=C(Cl)C4=CC(=O)[C@@H]5C[C@@H]5[C@]4(C)[C@H]3CC[C@@]21C
MEASURED: 0.81
--
COMPOUND: CC1CCC2(OC1)OC1CC3C4CCC5C[C@@H](O)CCC5(C)C4=CCC3(C)C1[C@@H]2C (stereo partly drawn) [3beta-HYDROXYISOALLOSPIROST-9(11)-ENE]
MEASURED: 1.02
--
COMPOUND: CC(C)(C)NCC(O)c1ccc(O)c(CO)c1 (stereo not drawn)
MEASURED: 1.06
--
COMPOUND: Cc1c(C)c2c(c(C)c1O)CCC(C)(COc1ccc(CC3SC(=O)NC3=O)cc1)O2 (stereo not drawn)
MEASURED: 0.942
--
COMPOUND: N[C@H]1C(O)O[C@H](CO)[C@@H](O)[C@@H]1O (stereo partly drawn)
MEASURED: 1.12
--
COMPOUND: O=c1[nH]c(=O)n([C@H]2C[C@H](O)[C@@H](CO)O2)cc1C(F)(F)F
MEASURED: 0.818
--
COMPOUND: COC(=O)Nc1nc2cc(Sc3ccccc3)ccc2[nH]1
MEASURED: 0.99
--
COMPOUND: O=c1c(O)cc([C@H]2Oc3cc(O)cc(O)c3C[C@H]2O)cc2c([C@H]3Oc4cc(O)cc(O)c4C[C@H]3O)cc(O)c(O)c12
MEASURED: 0.949
--
COMPOUND: CO[C@@]1(NC(=O)Cc2cccs2)C(=O)N2C(C(=O)O)=C(COC(N)=O)CS[C@@H]21
MEASURED: 1.07
--
COMPOUND: OC[C@H]1O[C@@](CO)(O[C@H]2O[C@H](CO)[C@@H](O)[C@H](O)[C@H]2O)[C@@H](O[C@H]2O[C@H](CO)[C@@H](O)[C@H](O)[C@H]2O)[C@@H]1O
MEASURED: 0.991
